Origin of the recorded values: paper PMC11535068

Documented melting point across a set of molecules

melting point lookup needed for COc1cc2c(cc1OC)C1N(CC2)C(C(=O)C=Cc2cn(-c3ccccc3)nc2-c2ccccc2)=NN1c1ccc(C)cc1 (stereo not drawn) , thanks.
184 to 186 °C

melting point lookup needed for COc1cc2c(cc1OC)C1N(CC2)C(C(=O)C=Cc2cn(-c3ccccc3)nc2-c2ccccc2)=NN1c1ccc([N+](=O)[O-])cc1 (stereo not drawn) , thanks.
224 to 226 °C

melting point lookup needed for COc1cc2c(cc1OC)C1N(CC2)C(C(=O)C=Cc2cn(-c3ccccc3)nc2-c2ccccc2)=NN1c1ccccc1 (stereo not drawn) , thanks.
180 to 182 °C
